- System: human PCSK9 locus
- experimental.details: Secreted PCSK9 by ELISA (normalized to total cell count) in Huh7 cells transfected with mRNA and gRNA
- Format: cell-based
- condition.details: 50 ng mRNA:25 ng gRNA; paired with LTRP5-ADD-ZIM3 mRNA; Huh7 cells; 6 days post-transfection; relative to non-targeting gRNA control
Assign class 1 to entries whose Percent reduction in PCSK9 secretion meets or exceeds 60%; assign class 0 to the rest.

>>> print(df.to_string())
                                   substance      target_system  label_class
 0  CAGUACGUUCCAGGCAUUCA (listed as RNA, chemistry not given here) [spacer 6.171, Intron 1]  human PCSK9 locus      class 0
 1  TG-06-350 (guide GUGUCAUAAAGAAAUUGCCU; listed as RNA, chemistry not given here)  human PCSK9 locus      class 0
 2  GUGGGCAGCGAGGAGUCCAC (listed as RNA, chemistry not given here) [spacer 6.144, Promoter]  human PCSK9 locus      class 1
 3  GAGCAGGCCAUUUCACUCGG (listed as RNA, chemistry not given here) [spacer 6.119, Promoter]  human PCSK9 locus      class 0
 4  CCUUUGUUUCUUCCCAGUAU (listed as RNA, chemistry not given here) [spacer 6.122, Promoter]  human PCSK9 locus      class 0
 5  TG-06-349 (guide CUGUGCCUGGUGCAGUUCCC; listed as RNA, chemistry not given here)  human PCSK9 locus      class 0
 6  AGAAAUCAACUGGACAAGCA (listed as RNA, chemistry not given here) [spacer 6.128, Promoter]  human PCSK9 locus      class 0
 7  TG-06-344 (guide CAGUUUCUGCCUCGCCGCGG; listed as RNA, chemistry not given here)  human PCSK9 locus      class 0
 8  TG-06-346 (guide CCCACCUGUGCCGCGGCGAG; listed as RNA, chemistry not given here)  human PCSK9 locus      class 0
 9  UCCCAGUAUCGACAGCCCUU (listed as RNA, chemistry not given here) [spacer 6.123, Promoter]  human PCSK9 locus      class 1
10  GAAGUCUCACUGGUCAGCAG (listed as RNA, chemistry not given here) [spacer 6.146, Promoter]  human PCSK9 locus      class 0
11  GUGGGAAGGUUCGCGGGGUU (listed as RNA, chemistry not given here) [spacer 6.168, Intron 1]  human PCSK9 locus      class 1
12  GAGGAGGACGGCCUGGCCGA (listed as RNA, chemistry not given here) [spacer 6.1, Exon 1]  human PCSK9 locus      class 1
13  AGCCCAGUUAGGAUUUGGGA (listed as RNA, chemistry not given here) [spacer 6.149, Promoter]  human PCSK9 locus      class 1

* * *

- Test system: human PCSK9 locus
- experimental.details: Secreted PCSK9 by ELISA (normalized to total cell count) in Huh7 cells transfected with mRNA and gRNA
- Type: cell-based
- condition.details: 25 ng mRNA:12.5 ng gRNA; paired with LTRP5-ADD-ZIM3 mRNA; Huh7 cells; 6 days post-transfection; normalized to total cell count
outcome.measure: Secreted PCSK9 (ng/mL)

>>> df
                                  substance  numeric_result
0  GCUCCUGCACAGUCCUCCCC (listed as RNA, chemistry not given here) [spacer 6.161, Exon 1]           53.16
1  GAGCAGGCCAUUUCACUCGG (listed as RNA, chemistry not given here) [spacer 6.119, Promoter]           84.54
2  UCCCUCUGCGCGUAAUCUGA (listed as RNA, chemistry not given here) [spacer 6.150, Promoter]           39.59
3  TG-06-002 (guide ACCGCUGCGCCAAGGUGCGG; listed as RNA, chemistry not given here)           83.15
4  GAGUGAAAUGGCCUGCUCUG (listed as RNA, chemistry not given here) [spacer 6.118, Promoter]           54.78
5  ACUUUGUUUGCAAAGACCUC (listed as RNA, chemistry not given here) [spacer 6.117, Promoter]           98.05
6  AUGGUAGGCACAAGCUCAGC (listed as RNA, chemistry not given here) [spacer 6.133, Promoter]           42.13
7  UUCCACUGGCCUUAACCUGG (listed as RNA, chemistry not given here) [spacer 6.142, Promoter]           27.27
8  GAAUUCUAUGGUAGGCACAA (listed as RNA, chemistry not given here) [spacer 6.134, Promoter]           57.45

* * *

- Tested on: human PCSK9 locus
- experimental.details: Secreted PCSK9 by ELISA (normalized to total cell count) in Huh7 cells transfected with mRNA and gRNA
- Type: cell-based
- condition.details: 50 ng mRNA:25 ng gRNA; paired with LTRP5-ADD-ZIM3 mRNA; Huh7 cells; 6 days post-transfection; normalized to total cell count
outcome.measure: Secreted PCSK9 (ng/mL)

                                  substance      target_system  outcome_measure  numeric_result
0  UGAACAUGGUGUGUAAAAGG (listed as RNA, chemistry not given here) [spacer 6.131, Promoter]  human PCSK9 locus   Secreted PCSK9            28.4
1  TG-06-249 (guide AAACCAAAUCGGAACCCACU; listed as RNA, chemistry not given here)  human PCSK9 locus   Secreted PCSK9           87.36
2  GCCUCGCCCUCCCCAAACAG (listed as RNA, chemistry not given here) [spacer 6.152, Promoter]  human PCSK9 locus   Secreted PCSK9           36.95

* * *

- System: human PCSK9 locus
- experimental.details: Secreted PCSK9 by ELISA (normalized to total cell count) in Huh7 cells transfected with mRNA and gRNA
- Format: cell-based
- condition.details: 25 ng mRNA:12.5 ng gRNA; paired with LTRP5-ADD-ZIM3 mRNA; Huh7 cells; 6 days post-transfection; relative to non-targeting gRNA control
- Experimental: To assess PCSK9 secretion, seeded Huh7 cells were transfected with mRNA encoding a catalytically-active CasX 676, dXR1, or LTRP5-ADD-ZIM3 and a gRNA with scaffold 316 and spacer targeting either the B2M or PCSK9 locus. Media supernatant was harvested at 6, 18, 36, and 87 days post-transfection to assess level of PCSK9 secretion by ELISA. […] As an additional control, PCSK9 secretion was also measured in the media supernatant harvested from wells containing untreated, naïve cells. […]
outcome.measure: Percent reduction in PCSK9 secretion

In [3]: df
Out[3]:
                                  substance  result
0  UGAACAUGGUGUGUAAAAGG (listed as RNA, chemistry not given here) [spacer 6.131, Promoter]  18.74%
1  TG-06-251 (guide CUCCAGGCCCUCCACCCUCC; listed as RNA, chemistry not given here)  37.37%
2  GUGUUUCCUGGGUCCACCUU (listed as RNA, chemistry not given here) [spacer 6.147, Promoter]  47.46%

* * *

- Tested on: human PCSK9 locus
- experimental.details: Secreted PCSK9 by ELISA (normalized to total cell count) in Huh7 cells transfected with mRNA and gRNA
- Type: cell-based
- condition.details: 25 ng mRNA:12.5 ng gRNA; paired with LTRP5-ADD-ZIM3 mRNA; Huh7 cells; 6 days post-transfection; relative to non-targeting gRNA control
Reported Percent reduction in PCSK9 secretion by item:
outcome.measure: Percent reduction in PCSK9 secretion (%)

                                  substance      target_system  numeric_result
0  GGAAAGCUGAGCUUGUGCCU (listed as RNA, chemistry not given here) [spacer 6.135, Promoter]  human PCSK9 locus           37.42
1  TG-06-343 (guide CCCCAUGUAAGAGAGGAAGU; listed as RNA, chemistry not given here)  human PCSK9 locus            6.04
2  CUCUGCGCGUAAUCUGACGC (listed as RNA, chemistry not given here) [spacer 6.151, Promoter]  human PCSK9 locus            6.77

* * *

Reported Percent reduction in PCSK9 secretion by item:
- Test system: human PCSK9 locus
- experimental.details: Secreted PCSK9 by ELISA (normalized to total cell count) in Huh7 cells transfected with mRNA and gRNA
- Format: cell-based
- condition.details: 50 ng mRNA:25 ng gRNA; paired with LTRP5-ADD-ZIM3 mRNA; Huh7 cells; 6 days post-transfection; relative to non-targeting gRNA control
outcome.measure: Percent reduction in PCSK9 secretion (%)

>>> print(df.to_string())
                                  substance      target_system  reading_unit  numeric_result
0  CAGUAUCGACAGCCCUUCCA (listed as RNA, chemistry not given here) [spacer 6.124, Promoter]  human PCSK9 locus             %            79.9
1  TG-06-249 (guide AAACCAAAUCGGAACCCACU; listed as RNA, chemistry not given here)  human PCSK9 locus             %            6.18
2  TG-06-347 (guide CUCCUUCACCCACCUGUGCC; listed as RNA, chemistry not given here)  human PCSK9 locus             %           67.73
3  CCUUUUCAUCCUCCUGCCUG (listed as RNA, chemistry not given here) [spacer 6.126, Promoter]  human PCSK9 locus             %           71.46
4  CUCUGCGCGUAAUCUGACGC (listed as RNA, chemistry not given here) [spacer 6.151, Promoter]  human PCSK9 locus             %           35.05
5  GCCUCGCCCUCCCCAAACAG (listed as RNA, chemistry not given here) [spacer 6.152, Promoter]  human PCSK9 locus             %           55.09
6  GAAUCAAUCCUACUGUGGAC (listed as RNA, chemistry not given here) [spacer 6.143, Promoter]  human PCSK9 locus             %           52.97
7  UGAACAUGGUGUGUAAAAGG (listed as RNA, chemistry not given here) [spacer 6.131, Promoter]  human PCSK9 locus             %           65.48
8  AUGGUAGGCACAAGCUCAGC (listed as RNA, chemistry not given here) [spacer 6.133, Promoter]  human PCSK9 locus             %           64.21

// data source = patent US12551573B2
